- MEASURED TARGET: T1, hMDL-1-hIG (human, UniProt Q9NY25 28-188)
- T1 construct: Fusion of human MDL-1 with human Ig used in the BIAcore assay; MDL-1 is a type II membrane protein, so the Ig part may stand N-terminal; also called MDL-1-hIg ligand; not shown: human Ig part (hIG)
- T1 sequence: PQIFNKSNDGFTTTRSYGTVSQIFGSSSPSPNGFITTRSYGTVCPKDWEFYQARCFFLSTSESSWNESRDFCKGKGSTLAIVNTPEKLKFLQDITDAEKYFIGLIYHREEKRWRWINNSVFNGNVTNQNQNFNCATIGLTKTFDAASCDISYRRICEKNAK
- ASSAY OVERVIEW: BIAcore SPR; hMDL-1-hIG as capture antigen on the chip, mAb as analyte; apparent Kd
METRIC NAME: pKd
The read-out pKd is expressed as -log10 of concentration in moles per litre.

// worked examples, pKd included
INSERT INTO assay_data (binder, measurement) VALUES
  ('DX244 (antibody, V domains shown, Parental rodent anti-human MDL-1 monoclonal antibody (not the humanized form); VL of the kappa subclass; also called anti-MDL-1 antibody clone DX244; ATCC PTA-8375) VH: QIQLVQSGPELKKPGETVKISCKASGYTFTIYAMNWVKQAPGKGLEWMGWINTDTGEPTYADDFKGRFAFSLETSASTAYLQINNLKNEDMATYFCARSSEVFYDYRFDYWGQGTALTVSS VL: DIQMTQSPSSLSASLGERVSLTCRASQDIGSSLNWLQQEPDGTIKRLIYATSNLDSGVPKRFSGSRSGSDYSLTISSLESEDFVHYYCLQYASSPFTFGSGTKLEIKR', 9.61),
  ('DX241 (antibody, V domains shown, Rodent anti-human MDL-1 monoclonal antibody from a hybridoma; VL of the kappa subclass; also called anti-MDL-1 antibody clone DX241; ATCC PTA-8374) VH: DVKLVESGGGLVKLGGSLKLSCAASGFTFSSYYMSWVRQTPDKRLELVAAINSNGGTTYYPDTVKGRFTISRDNAKNTLYLQMSSLKPEDTALFYCVRDGEFGHYFDYWGQGTTLTVSS VL: SIVMTQTPKFLLVSAGDRVTITCKASQSVNNDVAWYQQKPGQSPKLLIYYASNRYTGVPDRFTGSGYGTDFTFTISTVQAEDLAVYFCQQDYNSPLTFGAGTKLELKR', 9.68);

// below: pKd requested for another binder
Qu. Form field: reported pKd of DX246 (antibody, V domains shown, Rodent anti-human MDL-1 monoclonal antibody from a hybridoma; VL of the kappa subclass; also called anti-MDL-1 antibody clone DX246; ATCC PTA-8376) VH: QVTLKESGPGILKPSQTLSLTCSFSGFSLSTSGMNVGWIRQPSGKGLEWLAHIWWDDDKYYNPSLKSQLTISKDTSRNQVFLKITSVDTADTATYYCARRAFYGSNYDYYAMDYWGQGTSVTVSS VL: ENVLTQSPAIMSASPGEKVTMTCSVSSSVSYIHWYQQKSSTSPKLWIYDTSKLASGVPGRFSGSGSGNSYSLTISSMEAEDVATYYCFQGSGYPLTFGAGTKLELKR
Ans. 8.90
